Experiment: viability loss with induced miR-34 in A549 – imaging, A549 dox-inducible miR-34, nuclei and caspase counts, primary screen (AID 1347080)
Conditions: A549 miR-34 inducible, Hoechst nuclei count, 48 h; measured here: total cells with miR-34 induction; stronger effect = lower value
I'd appreciate it if you could label each record using cell count and these ranges: class 0: < 5000; class 1: ≥ 5000 and < 6000; class 2: ≥ 6000

- COMPOUND: "CCCCCC1OC(O)CC1SC[C@H](NC(C)=O)C(=O)O (stereo not given in full)"
  CLASSIFICATION: "class 1"
- COMPOUND: "Nc1nc(Nc2ccccc2)nc2c1ncn2[C@@H]1O[C@H](CO)[C@@H](O)[C@H]1O"
  CLASSIFICATION: "class 2"
- COMPOUND: "CN(N=O)C(=O)N[C@H]1C(O)O[C@H](CO)[C@@H](O)[C@@H]1O (stereo not given in full)"
  CLASSIFICATION: "class 2"

Band assignment needed for CC(C)=CCC/C(C)=C/CC/C(C)=C/C(O)P(=O)(O)O (stereo not given) please.
class 1

Band assignment needed for COc1ccc(CN2C(=O)C(=O)c3cc(OC(F)(F)F)ccc32)cc1 please.
class 0

Band assignment needed for Cc1nc(C(=O)NCC(=O)O)c(O)c2ccc(Oc3ccccc3)cc12 please.
class 2

Band assignment needed for CC(C)CC(=O)Nc1n[nH]c2c1CN(C(=O)C1CCN(C)CC1)C2(C)C please.
class 0

Band assignment needed for COc1c(O)c2c(=O)cc(OC)c3c4c(OC)cc(=O)c5c(O)c(OC)c(C[C@@H](C)OC(=O)c6ccccc6)c(c(c1C[C@@H](C)OC(=O)Oc1ccc(O)cc1)c23)c54 please.
class 0

---

Assay: growth inhibition, single agents and combos, LFS_MB_1R, cell-based, cisplatin or BGB combos, synergistic combos for chromothripsis tumors (AID 1671452);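 further: cells exposed for 96 hours before readout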
Settings: LFS_MB_1R medulloblastoma cells, measured here: combination with cisplatin, at 5 µM, stronger effect = higher value
OBSERVED_PROPERTY: inhibition (%)
Quick note: give the figure in %, leave out the unit.

Below: 5 compounds and their reported inhibition.
- COMPOUND: "COc1ccc(-n2c(SCCCN3C(=O)c4cccc5cccc(c45)C3=O)nnc2-c2ccncc2)cc1"
  inhibition, %: -31.3
- COMPOUND: "O=C(/C=C/c1ccc(CN(CCO)CCc2c[nH]c3ccccc23)cc1)NO"
  inhibition, %: 101
- COMPOUND: "Cc1cn([C@@H]2O[C@H](CO)[C@@H](O)[C@@H]2F)c(=O)[nH]c1=O"
  inhibition, %: -19
- COMPOUND: "COc1ccc(C(=O)C2CCN(CC(=O)N(Cc3nc4c(c(=O)[nH]3)COCC4)CC3CC3)CC2)cc1"
  inhibition, %: -67.1
- COMPOUND: "c1cc(Nc2cc(C3CC3)[nH]n2)nc(Nc2ccc3nc[nH]c3c2)n1"
  inhibition, %: 98.3

May I ask what inhibition has been recorded for Cc1ccc([N+](=O)[O-])cc1S(=O)(=O)N(C)/N=C/c1cnc2ccc(Br)cn12 ?
97.4

May I ask what inhibition has been recorded for Nc1ccccc1NC(=O)c1ccc(CNc2nccc(-c3cccnc3)n2)cc1 ?
96.3

May I ask what inhibition has been recorded for NC1CCC(N[C@@H]2C[C@H]2c2ccccc2)CC1 (some centres undefined) ?
-14.7

May I ask what inhibition has been recorded for CC(C)OC(=O)[C@H](C)N[P@](=O)(OC[C@H]1O[C@@H](n2ccc(=O)[nH]c2=O)[C@](C)(F)[C@@H]1O)Oc1ccccc1 ?
-6.21
